- Test system: Leishmania chagasi
- Test Name: Antileishmanial activity against Leishmania donovani chagasi MHOM/BR/74/PP75 promastigotes after 72 hrs by phase contrast microscopic method
- Format: functional
- Cond: MHOM/BR/74/PP75, 72 h
Property Name: pIC50
On this scale, pIC50 is minus log10 of a concentration expressed in M (mol/L).

Entry under test: "COC(=O)[C@@H]1C[C@@]23CCCN4CC[C@@]5(c6ccccc6N(C(=O)OC)[C@]15CC2)[C@H]43" . Its pIC50 was 4.22

* * *

- Tested on: Escherichia coli
- Test Name: Antibacterial activity against Escherichia coli NCIM 2256 by standard agar method
- Format: functional
Checkbox rule: MIC lower than 100 µg/mL = Met; MIC not lower than 100 µg/mL = Not met.

As a guide, the following entries are already answered.
COc1ccc(-c2cc(-c3c[nH]c4ccccc34)nc(-c3c[nH]c4ccccc34)c2)cc1OC = Not met
COc1cc(-c2cc(-c3c[nH]c4ccccc34)nc(-c3c[nH]c4ccccc34)c2)cc(OC)c1OC = Not met
COc1ccc(-c2cc(-c3c[nH]c4ccccc34)nc(-c3c[nH]c4ccccc34)c2)cc1 = Met

Say whether its MIC is strictly beneath 100 µg/mL. Entry: "Clc1ccccc1-c1cc(-c2c[nH]c3ccccc23)nc(-c2c[nH]c3ccccc23)c1" Met

Say whether its MIC is strictly beneath 100 µg/mL. Entry: "c1ccc(-c2cc(-c3c[nH]c4ccccc34)nc(-c3c[nH]c4ccccc34)c2)cc1" Met

Say whether its MIC is strictly beneath 100 µg/mL. Entry: "COc1ccc(OC)c(-c2cc(-c3c[nH]c4ccccc34)nc(-c3c[nH]c4ccccc34)c2)c1" Not met

* * *

- Tested on: Leishmania donovani
- Test Name: Antileishmanial activity against Leishmania donovani NHOM/IN/80/DD8 promastigotes after 72 hrs by MTT assay
- Format: functional
- Cond: NHOM/IN/80/DD8, 72 h
Property Name: IC50 (µM)
Field format: number, assumed µM, no unit text.

Consider the reported IC50 for these compounds:
O=C(O)c1ccccc1-c1cc(-c2c[nH]c3ccccc23)nc(-c2c[nH]c3ccccc23)c1 = 118
COc1ccc(OC)c(-c2cc(-c3c[nH]c4ccccc34)nc(-c3c[nH]c4ccccc34)c2)c1 = 260
COc1ccc(-c2cc(-c3c[nH]c4ccccc34)nc(-c3c[nH]c4ccccc34)c2)cc1OC = 192
COc1ccc(-c2cc(-c3c[nH]c4ccccc34)nc(-c3c[nH]c4ccccc34)c2)c(OC)c1 = 600
COc1ccc(-c2cc(-c3c[nH]c4ccccc34)nc(-c3c[nH]c4ccccc34)c2)cc1 = 99.5

Fill in: Leishmania donovani IC50 for "Clc1cccc(Cl)c1-c1cc(-c2c[nH]c3ccccc23)nc(-c2c[nH]c3ccccc23)c1" = 102

Fill in: Leishmania donovani IC50 for "Oc1ccc(-c2cc(-c3c[nH]c4ccccc34)nc(-c3c[nH]c4ccccc34)c2)cc1O" = 287

Fill in: Leishmania donovani IC50 for "CN(C)c1ccc(-c2cc(-c3c[nH]c4ccccc34)nc(-c3c[nH]c4ccccc34)c2)cc1" = 112

* * *

- Tested on: Leishmania donovani
- Test Name: Antileishmanial activity against Leishmania donovani
- Assay type: functional
Property Name: pIC50
On this scale, pIC50 is minus log10 of a concentration expressed in M (mol/L).

Entry under test: C[n+]1c2ccccc2cc2[n-]c3ccccc3c21 [CRYPTOLEPINE] . Its pIC50 was 5.80

* * *

- System: Staphylococcus aureus
- Test Name: Antibacterial activity against Staphylococcus aureus NCIM 2901 by standard agar method
- Assay type: functional
Reported MIC values follow for various compounds
Field format: number, assumed µg/mL, no unit text.

Consider the reported MIC for these compounds:
COc1cc(-c2cc(-c3c[nH]c4ccccc34)nc(-c3c[nH]c4ccccc34)c2)ccc1O = 221
Clc1ccc(-c2cc(-c3c[nH]c4ccccc34)nc(-c3c[nH]c4ccccc34)c2)cc1 = 183
O=C(O)c1ccccc1-c1cc(-c2c[nH]c3ccccc23)nc(-c2c[nH]c3ccccc23)c1 = 129
c1ccc(-c2cc(-c3c[nH]c4ccccc34)nc(-c3c[nH]c4ccccc34)c2)cc1 = 158
Clc1ccccc1-c1cc(-c2c[nH]c3ccccc23)nc(-c2c[nH]c3ccccc23)c1 = 166
COc1cc(-c2cc(-c3c[nH]c4ccccc34)nc(-c3c[nH]c4ccccc34)c2)cc(OC)c1OC = 179

Entry under test: "Oc1ccc(-c2cc(-c3c[nH]c4ccccc34)nc(-c3c[nH]c4ccccc34)c2)cc1O" . Its MIC was 191

Entry under test: CC1(C)S[C@@H]2[C@H](NC(=O)[C@H](N)c3ccccc3)C(=O)N2[C@H]1C(=O)O [AMPICILLIN] . Its MIC was 250

Entry under test: "COc1ccc(-c2cc(-c3c[nH]c4ccccc34)nc(-c3c[nH]c4ccccc34)c2)cc1OC" . Its MIC was 194

* * *

- System: Escherichia coli
- Test Name: Antibacterial activity against Escherichia coli NCIM 2256 by standard agar method
- Assay type: functional
Property Name: MIC

Oc1ccc(-c2cc(-c3c[nH]c4ccccc34)nc(-c3c[nH]c4ccccc34)c2)cc1O = 158 µg/mL
O=C(O)c1cn(C2CC2)c2cc(N3CCNCC3)c(F)cc2c1=O [CIPROFLOXACIN] = 25 µg/mL
CN(C)c1ccc(-c2cc(-c3c[nH]c4ccccc34)nc(-c3c[nH]c4ccccc34)c2)cc1 = 95.9 µg/mL
Clc1cccc(Cl)c1-c1cc(-c2c[nH]c3ccccc23)nc(-c2c[nH]c3ccccc23)c1 = 87.5 µg/mL
COc1cc(-c2cc(-c3c[nH]c4ccccc34)nc(-c3c[nH]c4ccccc34)c2)ccc1O = 129 µg/mL
COc1ccc(-c2cc(-c3c[nH]c4ccccc34)nc(-c3c[nH]c4ccccc34)c2)c(OC)c1 = 52.2 µg/mL

Entry under test: "Clc1ccc(-c2cc(-c3c[nH]c4ccccc34)nc(-c3c[nH]c4ccccc34)c2)cc1" . Its MIC was 90.5 µg/mL

Entry under test: "O=C(O)c1ccccc1-c1cc(-c2c[nH]c3ccccc23)nc(-c2c[nH]c3ccccc23)c1" . Its MIC was 71.5 µg/mL

Entry under test: CC1(C)S[C@@H]2[C@H](NC(=O)[C@H](N)c3ccccc3)C(=O)N2[C@H]1C(=O)O [AMPICILLIN] . Its MIC was 100 µg/mL

* * *

Reported IC50 values follow for various compounds
- Test system: Leishmania donovani
- Test Name: Antileishmanial activity against Leishmania donovani NHOM/IN/80/DD8 promastigotes after 72 hrs by MTT assay
- Format: functional
- Cond: NHOM/IN/80/DD8, 72 h
Please state the number and follow it with the unit.

Consider the reported IC50 for these compounds:
COc1cc(-c2cc(-c3c[nH]c4ccccc34)nc(-c3c[nH]c4ccccc34)c2)cc(OC)c1OC = 136 µM
Clc1ccccc1-c1cc(-c2c[nH]c3ccccc23)nc(-c2c[nH]c3ccccc23)c1 = 123 µM
COc1cc(-c2cc(-c3c[nH]c4ccccc34)nc(-c3c[nH]c4ccccc34)c2)ccc1O = 169 µM
c1ccc(-c2cc(-c3c[nH]c4ccccc34)nc(-c3c[nH]c4ccccc34)c2)cc1 = 142 µM

API: the following record is the query input.
Fill in: Leishmania donovani IC50 for "Clc1ccc(-c2cc(-c3c[nH]c4ccccc34)nc(-c3c[nH]c4ccccc34)c2)cc1" = 166 µM

* * *

- Tested on: Staphylococcus aureus
- Test Name: Antibacterial activity against Staphylococcus aureus NCIM 2901 by standard agar method
- Assay type: functional
Checkbox rule: MIC lower than 200 µg/mL = 1.0; MIC not lower than 200 µg/mL = 0.0.

As a guide, the following entries are already answered.
Clc1cccc(Cl)c1-c1cc(-c2c[nH]c3ccccc23)nc(-c2c[nH]c3ccccc23)c1 = 1.0
COc1ccc(OC)c(-c2cc(-c3c[nH]c4ccccc34)nc(-c3c[nH]c4ccccc34)c2)c1 = 1.0
COc1ccc(-c2cc(-c3c[nH]c4ccccc34)nc(-c3c[nH]c4ccccc34)c2)cc1 = 1.0

Say whether its MIC is strictly beneath 200 µg/mL. Entry: "COc1ccc(-c2cc(-c3c[nH]c4ccccc34)nc(-c3c[nH]c4ccccc34)c2)c(OC)c1" 1.0

Say whether its MIC is strictly beneath 200 µg/mL. Entry: "CN(C)c1ccc(-c2cc(-c3c[nH]c4ccccc34)nc(-c3c[nH]c4ccccc34)c2)cc1" 0.0
